List of IC50 values.
target: Enoyl-[acyl-carrier-protein] reductase [NADH] (Mycobacterium tuberculosis, UniProt P9WGR1)
Sequence (P9WGR1 whole entry): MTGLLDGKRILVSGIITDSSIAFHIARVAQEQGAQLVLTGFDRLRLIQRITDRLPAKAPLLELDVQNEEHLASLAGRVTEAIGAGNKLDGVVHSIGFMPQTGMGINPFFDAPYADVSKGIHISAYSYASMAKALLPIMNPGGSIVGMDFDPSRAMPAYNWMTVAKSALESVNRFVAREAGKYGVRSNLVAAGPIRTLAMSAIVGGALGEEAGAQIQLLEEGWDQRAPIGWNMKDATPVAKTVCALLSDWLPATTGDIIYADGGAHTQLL

| compound | systemTested | outputUnit | IC50 |
| --- | --- | --- | --- |
| CCOC(=O)Cc1csc(N2C(=O)CSC2c2ccc(OC)cc2)n1 (stereo not drawn) | Enoyl-[acyl-carrier-protein] reductase [NADH] (Mycobacterium tuberculosis, UniProt P9WGR1) | nM | 1300 |
| CCOC(=O)Cc1csc(N2C(=O)CSC2c2ccc(Br)cc2)n1 (stereo not drawn) | Enoyl-[acyl-carrier-protein] reductase [NADH] (Mycobacterium tuberculosis, UniProt P9WGR1) | nM | 1060 |
| COc1ccc(-c2nn(-c3ccc([N+](=O)[O-])cc3[N+](=O)[O-])c(N)c2C#N)cc1Oc1cccc(Br)c1C#N | Enoyl-[acyl-carrier-protein] reductase [NADH] (Mycobacterium tuberculosis, UniProt P9WGR1) | nM | 290 |

====

assay: Cytotoxicity against human WI-38 cells assessed as inhibition of cell growth by MTT assay; type: toxicity, cell-based
pIC50: −log10 of the molar value.

| moleculeSmiles | pIC50 |
| --- | --- |
| O=C(N/N=C1\C(=O)N(Cc2ccccc2)c2ccccc21)c1cnc2cc(Cl)ccc2c1O | 4.44 |

====

biological target: DNA gyrase (Escherichia coli, UniProt P0AES4+P0AES6); assay: Inhibition of Escherichia coli DNA gyrase
valueKind: IC50 (µM)

| moleculeSmiles | valueKind | recordedMeasurement |
| --- | --- | --- |
| Clc1ccc(Cn2cc(COc3ccc(C4=NCCO4)cc3)nn2)cc1 | IC50 | 0.083 |

====

assay: Microsomal stability in human liver microsomes assessed as half life at 0.1 uM incubated for 60 mins in presence of NADPH by LC-MS/MS analysis; format: ADME, Microsome
List of half-life at 0.1 µM values.
valueKind: half-life at 0.1 µM (min)

| moleculeSmiles | valueKind | outputUnit | recordedMeasurement |
| --- | --- | --- | --- |
| CC(=O)c1c(C)n(-c2ccc(C3CCNCC3)cc2)c2ccc(O)c(CN3CCCCC3)c12 | half-life at 0.1 µM | min | 58 |
| CC(=O)c1c(C)n(-c2ccc(-c3ccccc3)cc2)c2ccc(O)c(CN3CCCCC3)c12 | half-life at 0.1 µM | min | 20.7 |

====

Molecular target: UniProt:P9WIL5
Sequence (P9WIL5 whole entry): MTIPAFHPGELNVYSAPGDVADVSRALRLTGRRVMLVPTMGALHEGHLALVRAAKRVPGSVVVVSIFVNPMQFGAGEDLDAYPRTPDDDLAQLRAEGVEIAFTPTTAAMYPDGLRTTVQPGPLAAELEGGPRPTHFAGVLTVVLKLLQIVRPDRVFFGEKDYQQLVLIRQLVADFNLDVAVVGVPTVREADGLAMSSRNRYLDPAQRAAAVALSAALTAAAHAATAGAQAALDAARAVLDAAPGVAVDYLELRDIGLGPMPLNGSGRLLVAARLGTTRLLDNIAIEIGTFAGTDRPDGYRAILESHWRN

| moleculeSmiles | IC50 / nM |
| --- | --- |
| Cc1nc2sc3ccccc3n2c1C(=O)N1CCN(Cc2cn(-c3ccc(Cl)cc3Cl)nn2)CC1 | 2030 |

====

test: Cytotoxicity against African green monkey Vero cells assessed as inhibition of cell growth; type: toxicity, cell-based; settings: African green monkey (Chlorocebus sabaeus)

| moleculeSmiles | IC50 |
| --- | --- |
| O=C1C(C#Cc2ccccc2)=C(c2ccc(C(F)(F)F)cc2)C(=O)N1Cc1ccccn1 | > 64 mg/L |
